The measurements presented in this section are drawn from patent US11566007B2.

- Experimental target: NRAS Q61K (Homo sapiens (Human), UniProt P01111+P62937, Q61K)
- Sequence (P01111 whole entry Q61K): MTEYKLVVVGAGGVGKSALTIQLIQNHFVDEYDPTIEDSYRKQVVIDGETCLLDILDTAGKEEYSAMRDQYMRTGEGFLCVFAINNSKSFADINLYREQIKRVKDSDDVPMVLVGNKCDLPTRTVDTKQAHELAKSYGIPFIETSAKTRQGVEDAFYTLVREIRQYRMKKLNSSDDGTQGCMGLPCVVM
- Sequence (P62937 whole entry): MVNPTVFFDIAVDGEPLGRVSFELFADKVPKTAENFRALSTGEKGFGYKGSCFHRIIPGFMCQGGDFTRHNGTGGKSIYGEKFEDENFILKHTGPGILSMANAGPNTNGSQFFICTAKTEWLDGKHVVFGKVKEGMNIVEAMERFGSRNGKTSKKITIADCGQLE
- Assay procedure: Ras-Raf (BRAF RBD) disruption / FRET / MOA assay, NRAS Q61K
- Assay type: biochemical
- Condition description: NRAS Q61K; Ras-Raf disruption/FRET/MOA assay; read-out: IC50* NRAS Q61K FRET data
pIC50: −log10 of the molar value.
Entries and their pIC50 values follow.
Readout name: pIC50

- C=C(F)C(=O)N1CC2(CCN(C(=O)N(C)[C@H](C(=O)N[C@H]3Cc4nc(cs4)-c4ccc5c(c4)c(c(-c4cccnc4[C@H](C)OC)n5CC)CC(C)(C)COC(=O)[C@@H]4CCCN(N4)C3=O)C(C)C)CC2)C1 (atropisomer, axis not shown): 7.00 to 8.00
- C=CC(=O)N1CCN(C(=O)N(C)[C@H](C(=O)N[C@H]2Cc3cc(O)cc(c3)-c3ccc4c(c3)c(c(-c3cccnc3[C@H](C)OC)n4CC)CC(C)(C)COC(=O)[C@@H]3CCCN(N3)C2=O)C(C)C)CC1 (atropisomer, axis not shown): 7.00 to 8.00
- CCn1c(-c2cccnc2[C@H](C)OC)c2c3cc(ccc31)-c1cccc(c1)C[C@H](NC(=O)[C@H](C(C)C)N1CC[C@]3(CCN(C(=O)C#C[C@H]4COCCN4C4COC4)C3)C1=O)C(=O)N1CCC[C@H](N1)C(=O)OCC(C)(C)C2 (atropisomer, axis not shown): < 5.00
- C=CC(=O)N1CC[C@H](C(=O)N(C)[C@H](C(=O)N[C@H]2Cc3cc(O)cc(c3)-c3ccc4c(c3)c(c(-c3cc(CN(C)C)cnc3[C@H](C)OC)n4CC)CC(C)(C)COC(=O)[C@@H]3CCCN(N3)C2=O)C(C)C)C1 (atropisomer, axis not shown): 6.00 to 7.00
- C=CC(=O)N1C[C@H]2CN(C(=O)N(C)[C@H](C(=O)N[C@H]3Cc4nc(cs4)-c4ccc5c(c4)c(c(-c4cccnc4[C@H](C)OC)n5CC)CC(C)(C)COC(=O)[C@@H]4CCCN(N4)C3=O)C(C)C)[C@H]2C1 (atropisomer, axis not shown): 7.00 to 8.00
- CO[C@@H](C)c1ncccc1-c1c2c3cc(ccc3n1CC(F)(F)F)N1CCO[C@@H](C[C@H](NC(=O)[C@H](C(C)C)N3CC[C@@]4(CCN(C(=O)C#CC(C)(C)N(C)C)C4)C3=O)C(=O)N3CCC[C@H](N3)C(=O)OCC(C)(C)C2)C1 (atropisomer, axis not shown): < 5.00
- CCn1c(-c2cccnc2[C@H](C)OC)c2c3cc(ccc31)-c1cccc(c1)CC(NC(=O)[C@H](C(C)C)N1CC[C@]3(CCN(C(=O)C#C[C@@H]4COCCN4C4COC4)C3)C1=O)C(=O)N1CCC[C@H](N1)C(=O)OCC(C)(C)C2 (stereo partly drawn): < 5.00
- CCn1c(-c2cccnc2[C@H](C)OC)c2c3cc(ccc31)-c1cnc(o1)C[C@H](NC(=O)[C@@H](COC1CN(C(=O)C#CC(C)(C)N(C)C)C1)C(C)C)C(=O)N1CCC[C@H](N1)C(=O)OCC(C)(C)C2 (atropisomer, axis not shown): < 5.00
- CCn1c(-c2cccnc2[C@H](C)OC)c2c3cc(ccc31)-c1csc(n1)C[C@H](NC(=O)CCO[C@H]1CCN(C(=O)C#CC(C)(C)N3CCC3)C1)C(=O)N1CCC[C@H](N1)C(=O)OCC(C)(C)C2 (atropisomer, axis not shown): 5.00 to 6.00
- C=CC(=O)N1CC[C@H](C(=O)N(C)[C@H](C(=O)N[C@H]2CC3=CCCN(C3)c3ccc4c(c3)c(c(-c3cccnc3[C@H](C)OC)n4CC)CC(C)(C)COC(=O)[C@@H]3CCCN(N3)C2=O)C(C)C)C1 (atropisomer, axis not shown): < 5.00
- CCn1c(-c2cccnc2[C@H](C)OC)c2c3cc(ccc31)-c1nc(co1)C[C@H](NC(=O)[C@@H](COC1CN(C(=O)C#CC(C)(C)N(C)C)C1)C(C)C)C(=O)N1CCC[C@H](N1)C(=O)OCC(C)(C)C2 (atropisomer, axis not shown): < 5.00
- C=CC(=O)N1CC[C@]2(CCN(C(=O)N(C)[C@H](C(=O)N[C@H]3Cc4nc(cs4)-c4ccc5c(c4)c(c(-c4cccnc4[C@H](C)OC)n5CC)CC(C)(C)COC(=O)[C@@H]4CCCN(N4)C3=O)C(C)C)C2)C1 (atropisomer, axis not shown): 7.00 to 8.00
- C=CC(=O)N1CC[C@H](C(=O)N(C)[C@H](C(=O)N[C@H]2Cc3cccc(c3)-c3ccc4c(c3)c(c(-c3cccnc3[C@H](C)OC)n4CC(F)F)CC(C)(C)COC(=O)[C@@H]3CCCN(N3)C2=O)C(C)C)C1 (atropisomer, axis not shown): 5.00 to 6.00
- C=CC(=O)N1CC[C@H](C(=O)N2CCCCC[C@H]2C(=O)N[C@H]2Cc3nc(cs3)-c3ccc4c(c3)c(c(-c3cccnc3[C@H](C)OC)n4CC)CC(C)(C)COC(=O)[C@@H]3CCCN(N3)C2=O)C1 (atropisomer, axis not shown): 5.00 to 6.00
- C=CC(=O)N(C)CCC1CCN(C(=O)N(C)[C@H](C(=O)N[C@H]2Cc3nc(cs3)-c3ccc4c(c3)c(c(-c3cccnc3[C@H](C)OC)n4CC)CC(C)(C)COC(=O)[C@@H]3CCCN(N3)C2=O)C(C)C)CC1 (atropisomer, axis not shown): 7.00 to 8.00

----------
- Experimental target: KRAS G12V (Homo sapiens (Human), UniProt P01116+P62937, G12V)
- Sequence (P01116-2 other isoform, or with tags, fused parts or gaps G12V): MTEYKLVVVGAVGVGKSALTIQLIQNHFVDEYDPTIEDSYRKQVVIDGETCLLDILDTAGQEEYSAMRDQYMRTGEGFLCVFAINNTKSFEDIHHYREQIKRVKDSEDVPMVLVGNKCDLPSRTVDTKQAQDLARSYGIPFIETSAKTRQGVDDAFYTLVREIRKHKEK
- Sequence (P62937 whole entry): as the sequence (P62937 whole entry) above
- Assay procedure: Ras-Raf (BRAF RBD) disruption / FRET / MOA assay, KRAS G12V
- Assay type: biochemical
- Condition description: read-out: IC50* KRAS G12V FRET data
Entries and their IC50 values follow.
Readout name: IC50

• CCn1c(-c2cccnc2[C@H](C)OC)c2c3cc(ccc31)-c1cccc(c1)C[C@H](NC(=O)[C@H](C(C)C)N1CC[C@@]3(CCN(C(=O)C#C[C@H]4COCCN4C)C3)C1=O)C(=O)N1CCC[C@H](N1)C(=O)OCC(C)(C)C2 (atropisomer, axis not shown) = 1000 to 10000 nM
• CCn1c(-c2cccnc2COC)c2c3cc(ccc31)-c1cc(O)cc(c1)C[C@H](NC(=O)[C@H](C(C)C)N(C)C(=O)[C@H]1CCN(C(=O)C#CCCN3CCOCC3)C1)C(=O)N1CCC[C@H](N1)C(=O)OCC(C)(C)C2 = 100 to 1000 nM
• CCn1c(-c2ccccc2CN(C)C)c2c3cc(ccc31)-c1cc(O)cc(c1)C[C@H](NC(=O)[C@H](C(C)C)N(C)C(=O)c1ncc(NC(=O)/C=C/CN(C)C)n1C)C(=O)N1CCC[C@H](N1)C(=O)OCC(C)(C)C2 = > 10000 nM
• C=CC(=O)N(C)[C@H]1CN(C(=O)N(C)[C@H](C(=O)N[C@H]2Cc3nc(cs3)-c3ccc4c(c3)c(c(-c3cccnc3[C@H](C)OC)n4CC)CC(C)(C)COC(=O)[C@@H]3CCCN(N3)C2=O)C(C)C)C[C@H]1F (atropisomer, axis not shown) = 100 to 1000 nM
• CCn1c(-c2cccnc2[C@H](C)OC)c2c3cc(ccc31)-c1csc(n1)C[C@H](NC(=O)[C@H](C(C)C)N(C)C(=O)N(C)C1CN(C(=O)/C=C/C3CN(C)C3)C1)C(=O)N1CCC[C@H](N1)C(=O)OCC(C)(C)C2 (atropisomer, axis not shown) = 1000 to 10000 nM
• C=CC(=O)N(C)C[C@@H]1CCN(C(=O)N(C)[C@H](C(=O)N[C@H]2Cc3nc(cs3)-c3ccc4c(c3)c(c(-c3cccnc3[C@H](C)OC)n4CC)CC(C)(C)COC(=O)[C@@H]3CCCN(N3)C2=O)C(C)C)C1 (atropisomer, axis not shown) = 100 to 1000 nM
• C=CC(=O)N1C[C@H](C)N(C(=O)N(C)[C@H](C(=O)N[C@H]2Cc3nc(cs3)-c3ccc4c(c3)c(c(-c3cccnc3[C@H](C)OC)n4CC)CC(C)(C)COC(=O)[C@@H]3CCCN(N3)C2=O)C(C)C)CC12CC2 (atropisomer, axis not shown) = 100 to 1000 nM
• CCn1c(-c2cnccc2COC)c2c3cc(ccc31)-c1ccnc(c1)C[C@H](NC(=O)[C@H](C(C)C)N(C)C(=O)[C@H]1CCN(C(=O)C#CCN(C)C)C1)C(=O)N1CCC[C@H](N1)C(=O)OCC(C)(C)C2 = > 10000 nM

----------
Entries and their pIC50 values follow.
- Experimental target: KRAS G13D (Homo sapiens (Human), UniProt P01116+P62937, G13D)
- Sequence (P01116-2 other isoform, or with tags, fused parts or gaps G13D): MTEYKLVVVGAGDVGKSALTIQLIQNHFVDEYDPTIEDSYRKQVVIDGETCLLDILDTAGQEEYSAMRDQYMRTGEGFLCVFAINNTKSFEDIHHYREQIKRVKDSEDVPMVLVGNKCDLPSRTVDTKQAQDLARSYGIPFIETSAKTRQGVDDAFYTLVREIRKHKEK
- Sequence (P62937 whole entry): as the sequence (P62937 whole entry) above
- Assay procedure: Ras-Raf (BRAF RBD) disruption / FRET / MOA assay, KRAS G13D
- Type: biochemical
- Condition description: read-out: IC50* KRAS G13D FRET data
pIC50: −log10 of the molar value.
Readout name: pIC50

* C=CC(=O)N1CC[C@H](C(=O)N(C)[C@H](C(=O)NN2Cc3cc(O)cc(c3)-c3ccc4c(c3)c(c(-c3cccnc3[C@H](C)OC)n4CC)CC(C)(C)COC(=O)[C@@H]3CCCN(N3)C2=O)C(C)C)C1 (atropisomer, axis not shown) | 6.00 to 7.00
* C=CC(=O)C1CC[C@H](C(=O)N(C)[C@H](C(=O)N[C@H]2Cc3nsc(n3)-c3ccc4c(c3)c(c(-c3cccnc3[C@H](C)OC)n4CC)CC(C)(C)COC(=O)[C@@H]3CCCN(N3)C2=O)C(C)C)C1 (stereo partly shown) | 5.00 to 6.00
* C=CC(=O)N1C[C@@H](C(=O)N(C)[C@H](C(=O)N[C@H]2Cc3cc(O)cc(c3)-c3ccc4c(c3)c(c(-c3cccnc3COC)n4CC)CC(C)(C)COC(=O)[C@@H]3CCCN(N3)C2=O)C(C)C)C[C@H]1C | 6.00 to 7.00
* CCn1c(-c2cccnc2[C@H](C)OC)c2c3cc(ccc31)-c1cccc(c1)C[C@H](NC(=O)[C@H](C(C)C)N1CC[C@]3(CCN(C(=O)C#C[C@H]4COCCN4C)C3)C1=O)C(=O)N1CCC[C@H](N1)C(=O)OCC(C)(C)C2 (atropisomer, axis not shown) | < 5.00
